test system: AS120; test: qHTS profiling for inhibitors of Plasmodium falciparum proliferation (AID 504749); also: nearly all actives have a fitted effect of over 60% in size; details: P. falciparum in erythrocytes, SYBR Green DNA, 72 h; series mostly up to 28.7 µM
Inconclusive results are not listed. Activity calls are given as the source filed them. Calls follow the shape of the dose curve; as a rule, active = well fitted inhibition curve with a large enough effect; inconclusive = small, poorly fitted or top-dose-only effect; inactive = flat fitted curve, though single readings scatter.
Reply using exactly one outcome from class 1 (active), class 0 (inactive)

// below: answered compounds
INSERT INTO assay_data (compound, measured_on, answer_label) VALUES
  ('CCCC(=O)O', 'AS120', 'class 0'),
  ('CC/C=C\C/C=C\C/C=C\CCCCCCCC(=O)O', 'AS120', 'class 0'),
  ('COC(=O)CCC[N+](C)(C)C', 'AS120', 'class 0'),
  ('Cc1cccc(Nc2ncccc2C(=O)O)c1C', 'AS120', 'class 0'),
  ('CCN(CC)CCCC(C)Nc1cc(/C=C/c2ccccc2Cl)nc2cc(Cl)ccc12 (stereo not drawn)', 'AS120', 'class 1'),
  ('NCC[C@H](O)C(=O)N[C@@H]1C[C@H](N)[C@@H](O[C@H]2O[C@H](CN)CC[C@H]2N)[C@H](O)[C@H]1O[C@H]1O[C@H](CO)[C@@H](O)[C@H](N)[C@H]1O', 'AS120', 'class 0'),
  ('Cc1nc(NS(=O)(=O)c2ccc(N)cc2)nc(C)c1Br', 'AS120', 'class 0'),
  ('Cc1cc(=O)c(C(=O)N[C@@H](C(=O)N[C@@H]2C(=O)N3C(C(=O)O)=C(CSc4nnnn4C)CS[C@H]23)c2ccc(O)cc2)c[nH]1', 'AS120', 'class 0');

Exercise: Please indicate how the test categorized COC(=O)c1ccccc1O .
Solution: class 0

Exercise: Which outcome did this test record for the compound COc1ccc(-c2noc(CC(=O)O)c2-c2ccc(OC)cc2)cc1 ?
Solution: class 0

Exercise: GET /call?item= O.O.O.O.O.O.O.O=S(=O)([O-])[O-].[Co+2] returns the recorded outcome of this test.
Solution: class 1

Exercise: Returns: the outcome recorded for Oc1ccc(Cl)c2c1CCC2 in this assay.
Solution: class 0

Exercise: How was FCOC(C(F)(F)F)C(F)(F)F classified in this test?
Solution: class 0

Exercise: // outcome(item) with item = CCCCC[C@H](O)/C=C/[C@@H]1[C@H]2C/C(=C/CCCC(=O)O)O[C@H]2C[C@H]1O
Solution: class 0

Exercise: Which outcome did this test record for the compound O=C(O)Cc1nn(Cc2ccc(Br)cc2F)c(=O)c2ccccc12 ?
Solution: class 0

Exercise: How did this test come out for CCCCCCCCCCCCCCCCOCCOCCOCCOCCOCCOCCOCCOCCOCCOCCOCCOCCOCCOCCOCCOCCOCCOCCOCCOCCO ?
Solution: class 1

Exercise: State the result this test recorded for CC(CN(C)C)CN1c2ccccc2Sc2ccc(C(F)(F)F)cc21 (stereo not drawn) .
Solution: class 1

Exercise: # fetch the recorded call for O=C1[O][Bi][O]c2ccccc21 here
Solution: class 0

====

system: 7G8; assay: qHTS profiling for inhibitors of Plasmodium falciparum proliferation (AID 504749); also: nearly all actives have a fitted effect of over 60% in size; conditions: P. falciparum in erythrocytes, SYBR Green DNA, 72 h; series mostly up to 28.7 µM
Results filed as inconclusive are left out. Calls of active or inactive are those of the source. Calls follow the shape of the dose curve; as a rule, active = well fitted inhibition curve with a large enough effect; inconclusive = small, poorly fitted or top-dose-only effect; inactive = flat fitted curve, though single readings scatter.
Respond with a class label; see YES for active, NO for inactive

See these solved cases before continuing.
INSERT INTO results (compound, answer_label) VALUES
  ('O=P(O)(O)O', 'NO'),
  ('CCC(O)c1ccccc1 (centres undefined)', 'NO'),
  ('OCC(O)CO', 'NO'),
  ('N#Cc1ccc2c(c1)N(CCCN1CCC(O)CC1)c1ccccc1S2', 'YES'),
  ('CN[C@@H]1[C@H](O[C@H]2[C@H](O[C@H]3[C@H](O)[C@@H](O)[C@H](N=C(N)N)[C@@H](O)[C@@H]3N=C(N)N)O[C@@H](C)[C@]2(O)C=O)O[C@@H](CO)[C@H](O)[C@H]1O', 'NO');

Exercise: Just curious, what result did CC(C)[C@H](N)C(=O)OCC(CO)OCn1cnc2c(=O)[nH]c(N)nc21 (some centres undefined) get here?
Solution: NO

Exercise: How did this test come out for O=c1[nH]c(=O)n([C@H]2C[C@H](O)[C@@H](CO)O2)cc1/C=C/Br ?
Solution: NO

Exercise: Outcome? Oc1cc(O)cc(O)c1
Solution: NO

Exercise: Please indicate how the test categorized F[Si-2](F)(F)(F)(F)F .
Solution: NO

Exercise: Which outcome did this test record for the compound CS(=O)(=O)OCC(O)C(O)COS(C)(=O)=O (centres undefined) ?
Solution: NO

Exercise: What classification did CNC(=O)OCc1cccc(COC(=O)NC)n1 end up with in this test?
Solution: NO
